Molecular target: T1, EsCas13d, nuclease-dead (Eubacterium siraeum, UniProt B0MS50, R295A;H300A;R849A;H854A)
T1 sequence: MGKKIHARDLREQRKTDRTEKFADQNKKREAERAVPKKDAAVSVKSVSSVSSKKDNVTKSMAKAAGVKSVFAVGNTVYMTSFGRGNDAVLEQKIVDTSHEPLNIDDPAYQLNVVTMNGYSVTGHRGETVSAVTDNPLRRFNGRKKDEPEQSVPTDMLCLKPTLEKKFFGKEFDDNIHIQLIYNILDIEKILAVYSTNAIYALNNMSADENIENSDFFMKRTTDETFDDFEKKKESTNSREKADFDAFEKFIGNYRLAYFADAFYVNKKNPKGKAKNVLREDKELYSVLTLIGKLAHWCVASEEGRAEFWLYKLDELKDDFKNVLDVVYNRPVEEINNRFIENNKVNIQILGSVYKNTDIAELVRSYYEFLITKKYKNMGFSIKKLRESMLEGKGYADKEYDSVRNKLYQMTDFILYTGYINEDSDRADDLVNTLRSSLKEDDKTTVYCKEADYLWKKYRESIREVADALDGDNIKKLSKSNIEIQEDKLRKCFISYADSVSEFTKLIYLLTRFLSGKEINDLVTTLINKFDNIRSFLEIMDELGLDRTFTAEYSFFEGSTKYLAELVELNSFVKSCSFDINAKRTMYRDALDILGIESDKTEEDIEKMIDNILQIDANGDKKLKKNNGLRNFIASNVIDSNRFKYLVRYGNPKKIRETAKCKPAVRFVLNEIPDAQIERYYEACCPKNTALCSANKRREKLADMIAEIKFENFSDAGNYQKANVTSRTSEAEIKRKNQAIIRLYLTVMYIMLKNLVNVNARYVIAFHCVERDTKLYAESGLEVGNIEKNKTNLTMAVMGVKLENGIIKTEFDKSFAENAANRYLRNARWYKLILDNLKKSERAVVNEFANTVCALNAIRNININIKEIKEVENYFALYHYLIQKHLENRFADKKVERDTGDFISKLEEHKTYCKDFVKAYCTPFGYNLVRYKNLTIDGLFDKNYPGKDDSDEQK
Test: crRNA (strand 1, pre-loaded); Mg2+; 40 mM Tris-HCl pH 7.5, 150 mM NaCl, 6 mM MgCl2, 1 mM DTT, 0.1% Tween-20, 0.2 mg/ml BSA; 25 C; 10 min per concentration, then washed
Conditions: tags: His6-TwinStrep-SUMO cleaved; N-terminal SNAP kept (SNAP-Surface 488); label: 3' end held by stalled T7 RNA polymerase
Measure name: pKd
Numbers only, as −log10 of the molar value.

{"Binder": "target 1 A1U,G5C (mixed) RNA 1: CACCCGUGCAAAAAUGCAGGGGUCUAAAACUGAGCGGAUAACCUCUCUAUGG RNA 2: GGGAAUGGAUCCACAUCUACGAAUUCGUACCAUAGAGAGGUUAUCCCCUCUCCGAGAUCGGAAGAGCACACGU", "pKd": 8.05}

Next, consider the following binder.
Problem: Look up pKd for this binder: target 3 insU 3' of 13,insU 3' of 3 (mixed) RNA 1: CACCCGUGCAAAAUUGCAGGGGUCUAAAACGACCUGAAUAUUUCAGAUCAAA RNA 2: GGGAAUGGAUCCACAUCUACGAAUUCGUUUUUGAUCUGAUAAUAUUCAGGUUCUGCAGAUCGGAAGAGCACACGU
Result: 7.19
